A collection of compounds and their measured activity change, negative = cytotoxicity
# System: CAOV3
# method: Primary qHTS to identify gynecologic anti-cancer compounds using libraries of approved drugs and bioactive compounds (AID 1345084); note: % is set by controls: 0 for no effect and ±100 for the full control effect; nearly all actives have a fitted effect of over 55% in size
# cond: Gynecologic cancer cell panel viability, ATPlite luminescence, 48 h; series mostly up to 57.5 µM
Records with an inconclusive call do not appear. The source made the active and inactive calls. Calls come from the whole dose curve; as a rule, active = well fitted cell-killing curve with a large enough effect; inconclusive = small, poorly fitted or top-dose-only effect, or effect the other way; inactive = flat fitted curve, though single readings scatter.

Example compounds with recorded activity change, negative = cytotoxicity:
compound	activity change, negative = cytotoxicity
CC(=O)N[C@@H](CCCCN)C(=O)N(C)[C@@H](CC(C)C)C(=O)N[C@H](C(=O)N(C)[C@@H](Cc1ccccc1)C(=O)N[C@H](Cc1ccccc1)C(N)=O)C(C)C	6.22% [at 6.55 µM] (inactive)
CC1OC(OC2C(C)OC(OC3C(OC(=O)C45CCC(C)(C)CC4C4=CCC6C7(C)CCC(OC8OC(C(=O)O)C(O)C(O)C8OC8OC(CO)C(O)C(OC9OC(C)C(O)C(O)C9O)C8O)C(C)(CO)C7CCC6(C)C4(C)CC5)OC(CO)C(O)C3O)C(O)C2O)C(O)C(O)C1O (stereo not drawn)	6.9% [at 6.55 µM] (inactive)
CC1OC(OCC2OC(OC3CCC4(C)C(CCC5(C)C4CC=C4C6CC(C)(C)CCC6(C(=O)OC6OC(CO)C(O)C(O)C6O)CCC45C)C3(C)CO)C(O)C(O)C2O)C(O)C(O)C1O (stereo not drawn)	17.5% [at 11.6 µM] (inactive)

In: Hello, I am looking for reported activity change, negative = cytotoxicity with CAOV3 for C=CC(C)(O)CC/C=C(\C)C(=O)OC1C(O)C(CO)OC(OC(=O)C23CCC(C)(C)CC2C2=CCC4C5(C)CCC(OC6OC(COC7OCC(OC(C)=O)C(O)C7OC7OC(COC(C)=O)C(O)C(O)C7O)C(O)C(O)C6O)C(C)(C)C5CCC4(C)C2(C)C(O)C3O)C1OC1OCC(OC2OCC(O)C(OC3OCC(O)C(O)C3O)C2O)C(O)C1O (stereo not drawn) . Could you help?
Out: -2.2% [at 6.55 µM] (inactive)

In: What do you have for C=CC1C(OC2OC(CO)C(O)C(O)C2O)OC=C(C(=O)OC)C1CC(=O)OCC1C(C)C(O)CC1C(CO)COC(=O)CC1C(C(=O)O)=COC(OC2OC(CO)C(O)C(O)C2O)/C1=C\C (stereo not drawn) ?
Out: 12.7% [at 11.6 µM] (inactive)

In: How about this compound: CC(=O)O[C@H]1[C@H](O[C@H]2[C@@H]3C=CO[C@@H](O[C@@H]4O[C@H](CO)[C@@H](O)[C@H](O)[C@H]4O)[C@@H]3[C@@]3(CO)O[C@@H]23)O[C@@H](C)[C@H](OC(=O)/C=C/c2ccccc2)[C@H]1OC(=O)/C=C/c1ccccc1
Out: 23.2% [at 11.6 µM] (inactive)

In: Next record, please: C[C@@H]1O[C@@H](O[C@@H]2[C@@H](O)[C@H](O[C@H]3[C@H](O[C@H]4CC[C@@]5(C)C(CC[C@]6(C)C5CC=C5[C@@H]7CC(C)(C)CC[C@]7(C(=O)O[C@@H]7O[C@H](CO)[C@@H](O)[C@H](O)[C@H]7O[C@@H]7O[C@@H](C)[C@H](O[C@@H]8O[C@@H](C)[C@H](O)[C@@H](O)[C@H]8O)[C@@H](O)[C@H]7O)CC[C@]56C)[C@@]4(C)CO)O[C@H](C(=O)O)[C@@H](O)[C@@H]3O)O[C@H](CO)[C@H]2O)[C@H](O)[C@H](O)[C@H]1O (stereo partly drawn)
Out: 5.38% [at 6.55 µM] (inactive)

In: Continue with C[C@@H]1O[C@@H](O[C@@H]2[C@@H](O)[C@@H](O[C@]3(CO)O[C@H](CO)[C@@H](O)[C@@H]3OC(=O)/C=C/c3ccc(O)cc3)O[C@H](CO)[C@H]2OC(=O)/C=C/c2ccc(O)cc2)[C@H](O)[C@H](O)[C@H]1O[C@@H]1O[C@@H](C)[C@H](O[C@@H]2OC[C@](O)(CO)[C@H]2O)[C@@H](O)[C@H]1O
Out: 0.132% [at 11.6 µM] (inactive)
